# STUDY_TARGET: anti-CD28 Fab (SEQ ID NOs: 202, 203)
# Sequence (VH, as listed by the source, chain 1 of 2): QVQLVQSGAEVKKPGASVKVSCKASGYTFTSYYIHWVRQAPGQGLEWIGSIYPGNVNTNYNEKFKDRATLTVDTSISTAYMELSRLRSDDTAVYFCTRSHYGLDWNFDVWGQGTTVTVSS
# Sequence (VL, as listed by the source, chain 2 of 2): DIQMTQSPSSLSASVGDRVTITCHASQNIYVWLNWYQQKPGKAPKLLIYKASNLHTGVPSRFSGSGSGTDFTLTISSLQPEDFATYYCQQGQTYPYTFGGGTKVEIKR
# MEASUREMENT_NOTES: phage ELISA, Fab on plate;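 also: ELISA of crude clonal phage supernatants on the plate, wells preloaded with CD28 antigen or only blocking buffer, captured phage read out via HRP-linked anti-M13 antibody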
Known Anti-CD28 Fab signal of a selection of binders
Could you keep your reply to the number by itself?

Worked set:
- BINDER: "SCSAGATWAWPQCF [Phage-1194]"
  MEAS_VALUE: 1.19
- BINDER: "LCAAGATYPWPDCV [Phage-1188]"
  MEAS_VALUE: 1.21
- BINDER: "SCSAGAMYTWPTCL [Phage-1166]"
  MEAS_VALUE: 1.31
- BINDER: "TCAAGATYEWPSCL [Phage-1165]"
  MEAS_VALUE: 1.32
- BINDER: "SCADGFNYVWPLCF [Phage-1198]"
  MEAS_VALUE: 1.14

[in] What measured Anti-CD28 Fab signal goes with TCADGAFWQWPVCL [Phage-1184] ?
[out] 1.22

[in] Would you kindly share the measured Anti-CD28 Fab signal for TCSAGASYSWPYCM [Phage-1217] ?
[out] 1

[in] Entry SCAAGFHYEWPQCF [Phage-1211] : reported Anti-CD28 Fab signal = ?
[out] 1.06

[in] Which measured Anti-CD28 Fab signal value corresponds to TCAAGAQFAWPLCL [Phage-1132] ?
[out] 1.41

[in] Tell me the measured Anti-CD28 Fab signal of WCDQFFHYKWPLCL [Phage-1126] , please.
[out] 1.42
